test system: barnyardgrass (Echinochloa crusgalli, ECHCG); assay: Post-emerge greenhouse herbicide test, phytotoxicity rating; format: in vivo; settings: 500 g al/ha, 14 days after application
Consider the following compounds and their measured ECHCG phytotoxicity rating (0-100) readings.
readout type: ECHCG phytotoxicity rating (0-100)

| smiles structure | tgt | experimental result |
| --- | --- | --- |
| Cn1nc(-c2cc(Oc3ncccc3[N+](=O)[O-])c(Cl)cc2F)c(Cl)c1C(F)(F)F | barnyardgrass (Echinochloa crusgalli, ECHCG) | 100 |
| COc1cc(OC)nc(Oc2cc(-n3nnn(CCCF)c3=O)c(F)cc2Cl)n1 | barnyardgrass (Echinochloa crusgalli, ECHCG) | 0 |
| Nc1ccc(Oc2cc(-n3c(=O)n4n(c3=S)CCCC4)c(F)cc2Cl)cc1 | barnyardgrass (Echinochloa crusgalli, ECHCG) | 0 |
| O=c1n(CCCF)nnn1-c1cc(Oc2ncccc2C(F)(F)F)c(Cl)cc1F | barnyardgrass (Echinochloa crusgalli, ECHCG) | 70 |

###

test system: field corn (Zea mays L., var. Dekalb 535, CORN); assay: Pre-emerge greenhouse test, crop damage rating; format: in vivo; details: 125 g ai/ha, 14 days after application, rating scale 0-100
readout type: crop damage rating CORN

| compound | experimental result |
| --- | --- |
| CCN1CC(=O)N(c2cc(Oc3ncccn3)c(Cl)cc2F)C1=O [Compound 8-2] | 0 |
| O=c1n(CCCF)nnn1-c1cc(Oc2ncccc2[N+](=O)[O-])c(Cl)cc1Cl [Compound 6-3] | 30 |
| O=c1n(CCCF)nnn1-c1cc(Oc2ncc(Br)cn2)c(Cl)cc1F [Compound 6-16] | 0 |
| O=c1n(-c2cc(Oc3ccccc3)c(Cl)cc2F)c(=S)n2n1CCCC2 [Compound 8-5] | 0 |
| Cn1c(C(F)(F)F)nc(-c2cc(Oc3ncccn3)c(Cl)cc2F)c1Cl [Compound 2-3] | 25 |
| O=c1n(CCCF)nnn1-c1cc(Oc2ccc(C(F)(F)F)cn2)c(Cl)cc1Cl [Compound 6-9] | 0 |
| O=c1n(CCCF)nnn1-c1cc(Oc2ncccc2[N+](=O)[O-])c(Cl)cc1F [Compound 6-2] | 0 |
| O=c1n(-c2cc(Oc3ccc([N+](=O)[O-])cc3)c(Cl)cc2F)c(=S)n2n1CCCC2 [Compound 8-8] | 5 |

###

tested on: large crabgrass (Digitaria sanguinalis, DIGSA); assay: Pre-emerge greenhouse herbicide test, phytotoxicity rating; format: in vivo; conditions: Digitaria sanguinalis, pre-emergence, 336 h, Rate 125 g al/ha, 14 days after application, rating scale 0-100
Consider the following molecules and their measured pest or weed control at 125 g/ha readings.

| smiles structure | tgt | pest or weed control at 125 g/ha / % |
| --- | --- | --- |
| Nn1c(C(F)(F)F)cc(=O)n(-c2cc(Oc3ccccc3C(F)(F)F)c(Cl)cc2F)c1=O | large crabgrass (Digitaria sanguinalis, DIGSA) | 90 |
| Nn1c(C(F)(F)F)cc(=O)n(-c2cc(Oc3cccc(Cl)n3)c(Cl)cc2F)c1=O | large crabgrass (Digitaria sanguinalis, DIGSA) | 95 |
| Nn1c(C(F)(F)F)cc(=O)n(-c2cc(Oc3ccc([N+](=O)[O-])cn3)c(Cl)cc2F)c1=O | large crabgrass (Digitaria sanguinalis, DIGSA) | 30 |
| Nn1c(C(F)(F)F)cc(=O)n(-c2cc(Oc3ccc(Br)cn3)c(Cl)cc2F)c1=O | large crabgrass (Digitaria sanguinalis, DIGSA) | 95 |
| Nn1c(C(F)(F)F)cc(=O)n(-c2cc(Oc3ncccc3[N+](=O)[O-])c(Cl)cc2F)c1=O | large crabgrass (Digitaria sanguinalis, DIGSA) | 40 |
| Cc1nsc(Oc2cc(-n3c(=O)cc(C(F)(F)F)n(N)c3=O)c(F)cc2Cl)c1[N+](=O)[O-] | large crabgrass (Digitaria sanguinalis, DIGSA) | 100 |
| Nn1c(C(F)(F)F)cc(=O)n(-c2cc(Oc3nccc(Cl)n3)c(Cl)cc2F)c1=O | large crabgrass (Digitaria sanguinalis, DIGSA) | 30 |
| Nn1c(C(F)(F)F)cc(=O)n(-c2cc(Oc3cc(C(F)(F)F)ccn3)c(Cl)cc2F)c1=O | large crabgrass (Digitaria sanguinalis, DIGSA) | 20 |
| Nn1c(C(F)(F)F)cc(=S)n(-c2cc(Oc3ccc(Cl)cn3)c(Cl)cc2F)c1=O | large crabgrass (Digitaria sanguinalis, DIGSA) | 70 |
| Nn1c(C(F)(F)F)cc(=O)n(-c2cc(Oc3ccccn3)c(Cl)cc2F)c1=O | large crabgrass (Digitaria sanguinalis, DIGSA) | 100 |
| Nn1c(C(F)(F)F)cc(=O)n(-c2cc(Oc3ncccc3C(F)(F)F)c(Cl)cc2F)c1=O | large crabgrass (Digitaria sanguinalis, DIGSA) | 100 |
| Nn1c(C(F)(F)F)cc(=O)n(-c2cc(Oc3ccccc3[N+](=O)[O-])c(Cl)cc2F)c1=O | large crabgrass (Digitaria sanguinalis, DIGSA) | 100 |
| Nn1c(C(F)(F)F)cc(=O)n(-c2cc(Oc3cc([N+](=O)[O-])cc(C(F)(F)F)c3)c(Cl)cc2F)c1=O | large crabgrass (Digitaria sanguinalis, DIGSA) | 10 |
| O=c1n(-c2cc(Oc3ncccc3C(F)(F)F)c(Cl)cc2F)c(=S)n2n1CCCC2 | large crabgrass (Digitaria sanguinalis, DIGSA) | 50 |
| O=c1n(-c2cc(Oc3ncccn3)c(Cl)cc2F)c(=S)n2n1CCCC2 | large crabgrass (Digitaria sanguinalis, DIGSA) | 100 |
